Taken from patent US20260167619A2.

Target under test: EGFR(Dell9_T790M_C797S) (aa 669-1210, in house) (Homo sapiens, UniProt P00533, T790M/C797S, form not given)
Sequence (P00533 with tags, fused parts or gaps DEL746-750/T790M/C797S, form open): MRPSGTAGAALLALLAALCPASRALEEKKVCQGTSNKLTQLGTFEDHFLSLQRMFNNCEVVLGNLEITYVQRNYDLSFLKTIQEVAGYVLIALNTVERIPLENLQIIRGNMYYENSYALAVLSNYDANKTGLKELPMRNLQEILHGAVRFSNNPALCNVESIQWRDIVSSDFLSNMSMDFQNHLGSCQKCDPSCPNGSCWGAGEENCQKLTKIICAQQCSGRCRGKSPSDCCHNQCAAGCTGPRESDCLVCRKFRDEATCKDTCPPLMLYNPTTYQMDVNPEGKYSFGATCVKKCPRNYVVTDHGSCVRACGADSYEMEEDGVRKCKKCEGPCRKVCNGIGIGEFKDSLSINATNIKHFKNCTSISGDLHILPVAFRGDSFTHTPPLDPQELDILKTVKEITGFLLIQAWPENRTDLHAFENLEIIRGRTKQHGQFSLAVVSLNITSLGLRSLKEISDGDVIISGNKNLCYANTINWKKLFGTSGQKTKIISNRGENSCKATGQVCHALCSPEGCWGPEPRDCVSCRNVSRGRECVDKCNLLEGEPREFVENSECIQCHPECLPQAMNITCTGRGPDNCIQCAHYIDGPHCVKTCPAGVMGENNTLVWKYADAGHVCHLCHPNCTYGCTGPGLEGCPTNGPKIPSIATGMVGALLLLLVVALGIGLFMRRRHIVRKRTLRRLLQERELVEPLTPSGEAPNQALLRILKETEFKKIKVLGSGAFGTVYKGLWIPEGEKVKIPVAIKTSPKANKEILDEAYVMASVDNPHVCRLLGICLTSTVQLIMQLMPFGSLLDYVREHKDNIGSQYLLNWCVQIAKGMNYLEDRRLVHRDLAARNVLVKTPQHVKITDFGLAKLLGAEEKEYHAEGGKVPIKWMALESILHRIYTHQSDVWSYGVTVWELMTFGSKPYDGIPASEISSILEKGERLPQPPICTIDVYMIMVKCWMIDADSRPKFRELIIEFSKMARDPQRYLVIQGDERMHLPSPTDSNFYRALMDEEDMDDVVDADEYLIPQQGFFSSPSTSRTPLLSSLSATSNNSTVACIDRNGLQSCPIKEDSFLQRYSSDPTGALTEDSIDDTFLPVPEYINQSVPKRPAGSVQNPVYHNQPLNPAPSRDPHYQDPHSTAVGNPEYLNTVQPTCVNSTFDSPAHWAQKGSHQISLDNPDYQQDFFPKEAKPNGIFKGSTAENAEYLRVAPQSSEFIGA
Procedure text: Biochemical EGFR inhibition assay (TR-FRET), Del19/T790M/C797S mutant
Condition label: ATP at Km, 15 min pre-incubation, 60 min reaction; read-out: Del_TM_CS (Km ATP) IC50
pIC50: −log10 of the molar value.
Outcome label depends on pIC50 relative to 9: at/above gives fulfilled, below gives not fulfilled.

INSERT INTO assay_data (entry_smiles, classification) VALUES
  ('COc1cc(N2CCN(C)[C@H](C)C2)c(C)cc1Nc1nc(Nc2cccc3c2N(S(C)(=O)=O)CC3)c2cc[nH]c2n1', 'not fulfilled');

Task: Confirm if pIC50 reported for the compound COc1cc(N2CCC3(CC2)CN(C)C3)c(C)cc1Nc1ncc(Br)c(Nc2cccc3c2N(S(C)(=O)=O)CC3)n1 is 9 or above.
Output: fulfilled

Task: Confirm if pIC50 reported for the compound CN1CCN(c2ccc(Nc3nc(Nc4cccc5c4N(S(C)(=O)=O)CC5)c4cc[nH]c4n3)c(F)c2F)CC1 is 9 or above.
Output: not fulfilled
